Experiment: Plasma protein binding by ultrafiltration, human plasma
Type: in vitro ADME
Conditions: human, plasma; 4 μg/mL TPB15, ultrafiltration, 37 °C 3 h
Experimental endpoint: fraction unbound at 3 h, 4 μg/mL
Answers are plain numbers.

**Q:** Give reported fraction unbound at 3 h, 4 μg/mL value for O=C(Nc1ccc(Cl)c(-c2nnc3c(Cl)cccn23)c1)c1ccc(Cl)nc1Cl [TPB15]
**A:** 0.185

* * *

Assay: Metabolic stability in monkey liver microsomes (MLM)
Format: in vitro ADME, crab-eating monkey
Conditions: monkey liver microsomes; MLM, 5 μM TPB15, 0.5 mg/mL microsomes; read-out: T1/2 (min), in vitro elimination half-life
Experimental endpoint: half-life at 5 μM (min)
Answers are plain numbers, in min.

**Q:** Give reported half-life at 5 μM value for O=C(Nc1ccc(Cl)c(-c2nnc3c(Cl)cccn23)c1)c1ccc(Cl)nc1Cl
**A:** 88
